The values you see were collected from patent US20110201818A1.

Target: human PLK1 (Homo sapiens)
Construct: FLAG (DYKDDDDK) (N); made in house; host or cells: Sf21 insect cells, recombinant baculovirus (pFASTBAC1, Bac-to-Bac)
Experiment: PLK1 in vitro enzymatic activity assay (phosphorylation of alpha casein by recombinant PLK1)
Type: biochemical
Details: recombinant FLAG-tagged PLK1, alpha casein substrate, 500 nmol/L ATP, 40 min at room temperature; read-out: pIC50 (PLK1) (converted)
Below: a set of entries, each annotated with reported IC50.

Record excerpt, results attached:
[[record]]
compound = "COc1cc(CO)ccc1Nc1ncc2c(n1)N(C1CCCC1)CC(F)(F)CN2C"
assayed_target = "human PLK1 (Homo sapiens)"
observation_type = "IC50"
reported_value = "> 2 nM"

[[record]]
compound = "COc1cc(C(=O)NC2CCN(C)CC2)ccc1Nc1ncc2c(n1)N(C1CCCCC1)CC(C)(F)C(=O)N2C (stereo not shown)"
assayed_target = "human PLK1 (Homo sapiens)"
observation_type = "IC50"
reported_value = "≤ 2 nM"

[[record]]
compound = "CCC1(F)CN(C2CCCCC2)c2nc(Nc3ccc(C(=O)NC4CCN(C)CC4)cc3OC)ncc2N(C)C1=O (stereo not shown)"
assayed_target = "human PLK1 (Homo sapiens)"
observation_type = "IC50"
reported_value = "> 2 nM"

[[record]]
compound = "CNC(=O)c1ccc(Nc2ncc3c(n2)N(C2CCCCC2)CC(F)(F)C(=O)N3C)c(OC)c1"
assayed_target = "human PLK1 (Homo sapiens)"
observation_type = "IC50"
reported_value = "≤ 2 nM"


stdin: Requested field: IC50. Item: `CN1C(=O)C(F)(F)CN(C2CCCC2)c2nc(Nc3ccc4c(c3)NC(=O)C4)ncc21`
stdout: > 2 nM

stdin: Requested field: IC50. Item: `Cc1cc(C(=O)NC2CCN(C)CC2)ccc1Nc1ncc2c(n1)N(C1CCCC1)CC(F)(F)C(=O)N2C`
stdout: > 2 nM

stdin: Requested field: IC50. Item: `COc1cc(C(=O)N[C@@H]2CCCNC2)c(F)cc1Nc1ncc2c(n1)N(C1CCCC1)CC(F)(F)C(=O)N2C`
stdout: > 2 nM

* * *

Target: human PLK1 (Homo sapiens, UniProt P53350)
Construct: FLAG (DYKDDDDK) (N); made in house; host or cells: Sf21 insect cells, recombinant baculovirus (pFASTBAC1, Bac-to-Bac)
Sequence (P53350 with tags, fused parts or gaps): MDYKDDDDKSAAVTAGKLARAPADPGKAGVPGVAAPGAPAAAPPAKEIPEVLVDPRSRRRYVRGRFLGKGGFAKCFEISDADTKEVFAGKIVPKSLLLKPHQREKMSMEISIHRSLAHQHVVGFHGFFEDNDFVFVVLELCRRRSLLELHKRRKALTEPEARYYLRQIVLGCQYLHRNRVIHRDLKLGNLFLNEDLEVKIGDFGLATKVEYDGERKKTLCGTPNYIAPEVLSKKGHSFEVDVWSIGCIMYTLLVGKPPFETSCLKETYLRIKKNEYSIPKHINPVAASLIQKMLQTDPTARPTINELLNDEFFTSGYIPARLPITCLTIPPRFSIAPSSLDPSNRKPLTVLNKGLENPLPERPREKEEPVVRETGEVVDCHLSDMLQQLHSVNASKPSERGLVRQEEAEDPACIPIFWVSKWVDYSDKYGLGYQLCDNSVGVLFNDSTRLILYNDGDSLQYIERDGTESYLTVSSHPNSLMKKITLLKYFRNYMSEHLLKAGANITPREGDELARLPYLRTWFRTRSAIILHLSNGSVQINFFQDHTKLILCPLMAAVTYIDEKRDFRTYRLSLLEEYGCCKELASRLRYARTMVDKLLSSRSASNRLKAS
Test: PLK1 in vitro enzymatic activity assay (phosphorylation of alpha casein by recombinant PLK1)
Assay type: biochemical
Conditions: recombinant FLAG-tagged PLK1, alpha casein substrate, 500 nmol/L ATP, 40 min at room temperature; read-out: pIC50 (PLK1) (converted)
Below: a set of entries, each annotated with reported IC50.

Record excerpt, results attached:
[[record]]
smiles_input = "COc1cc(C(=O)NN2CCN(C)CC2)ccc1Nc1ncc2c(n1)N(C1CCCCC1)CC(F)(F)C(=O)N2C"
reported_value = "≤ 2 nM"

[[record]]
smiles_input = "C=C[C@@]1(F)CN(C2CCCC2)c2nc(Nc3ccc(C(=O)N[C@@H]4CCCNC4)cc3OC)ncc2N(C)C1=O"
reported_value = "> 2 nM"

[[record]]
smiles_input = "COc1cc(C(=O)NC2CCN(CCO)CC2)c(F)cc1Nc1ncc2c(n1)N(C1CCCC1)CC(F)(F)C(=O)N2C"
reported_value = "≤ 2 nM"


Lab note: next compound to report on.
stdin: Requested field: IC50. Item: `COc1cc(C(=O)NC2CN(C(C)C)C2)ccc1Nc1ncc2c(n1)N(C1CCCCC1)CC(F)(F)C(=O)N2C`
stdout: ≤ 2 nM

* * *

Below: a set of entries, each annotated with reported IC50.
Target: human PLK1 (Homo sapiens, UniProt P53350)
Construct: FLAG (DYKDDDDK) (N); made in house; host or cells: Sf21 insect cells, recombinant baculovirus (pFASTBAC1, Bac-to-Bac)
Test: PLK1 in vitro enzymatic activity assay (phosphorylation of alpha casein by recombinant PLK1)
Format: biochemical
Settings: recombinant FLAG-tagged PLK1, alpha casein substrate, 500 nmol/L ATP, 40 min at room temperature; read-out: pIC50 (PLK1) (converted)

Record excerpt, results attached:
[[record]]
compound = "COc1cc(C(=O)NN2CCN(CC3CC3)CC2)ccc1Nc1ncc2c(n1)N(C1CCCCC1)CC(F)(F)C(=O)N2C [Compound 80]"
observation_type = "IC50"
reported_value = "≤ 2 nM"

[[record]]
compound = "COc1cc(C(=O)NC2CCN(CCO)CC2)ccc1Nc1ncc2c(n1)N(C1CCCC1)CC(F)(F)C(=O)N2C [Compound 5]"
observation_type = "IC50"
reported_value = "≤ 2 nM"

[[record]]
compound = "CN1C(=O)C(F)(F)CN(C2CCCC2)c2nc(Nc3ccc4[nH]cc(C5=CCNCC5)c4c3)ncc21 [Compound 21]"
observation_type = "IC50"
reported_value = "> 2 nM"

[[record]]
compound = "CN1CCC(NC(=O)c2ccc(Nc3ncc4c(n3)N(C3CCCC3)CC(F)(F)C(=O)N4C)c(C(F)(F)F)c2)CC1 [Compound 30]"
observation_type = "IC50"
reported_value = "> 2 nM"

[[record]]
compound = "COc1cc(C(=O)NC2CCN(C(=O)CN3CCCC3)CC2)ccc1Nc1ncc2c(n1)N(C1CCCC1)CC(F)(F)C(=O)N2C [Compound 12]"
observation_type = "IC50"
reported_value = "> 2 nM"


stdin: Requested field: IC50. Item: COc1cc(C(=O)NN(C)C)ccc1Nc1ncc2c(n1)N(C1CCCCC1)CC(F)(F)C(=O)N2C [Compound 61]
stdout: ≤ 2 nM

stdin: Requested field: IC50. Item: COc1cc(C(=O)NN2CCN(C3CCCC3)CC2)ccc1Nc1ncc2c(n1)N(C1CCCCC1)CC(F)(F)C(=O)N2C [Compound 52]
stdout: > 2 nM

stdin: Requested field: IC50. Item: COc1cc(C(=O)NC2CCN(C)CC2)ccc1Nc1ncc2c(n1)N(C1CCCC1)CC(F)(C(F)(F)F)C(=O)N2C (stereo not drawn) [Compound 85]
stdout: > 2 nM

stdin: Requested field: IC50. Item: COc1cc(C(=O)O)c(F)cc1Nc1ncc2c(n1)N(C1CCCC1)CC(F)(F)C(=O)N2C [Compound 31]
stdout: ≤ 2 nM

stdin: Requested field: IC50. Item: COc1cc(C(=O)N[C@@H]2CCCNC2)ccc1Nc1ncc2c(n1)N(C1CCCC1)CC(F)(F)C(=O)N2C [Compound 8]
stdout: ≤ 2 nM

stdin: Requested field: IC50. Item: CN1C(=O)C(F)(F)CN(C2CCCC2)c2nc(Nc3cccc4c3OC(F)(F)O4)ncc21 [Compound 136]
stdout: > 2 nM

stdin: Requested field: IC50. Item: CN1CCC(NC(=O)c2ccc(Nc3ncc4c(n3)N(C3CCCC3)CC(F)(F)C(=O)N4C)c(OC(F)(F)F)c2)CC1 [Compound 25]
stdout: > 2 nM

* * *

Below: a set of entries, each annotated with reported melting point.

Record excerpt, results attached:
[[record]]
compound = "COc1cc(C(=O)NC2CN(C)C2)ccc1Nc1ncc2c(n1)N(C1CCCC1)CC(F)(F)C(=O)N2C"
observation_type = "melting point"
reported_value = "157 to 162 °C"

[[record]]
compound = "COc1cc(C(=O)NN2CCN(C3CCCC3)CC2)ccc1Nc1ncc2c(n1)N(C1CCCCC1)CC(F)(F)C(=O)N2C"
observation_type = "melting point"
reported_value = "98 to 99 °C"


stdin: Requested field: melting point. Item: `COc1cc(C(=O)NN2CCN(C)CC2)ccc1Nc1ncc2c(n1)N(C1CCCC1)CC(F)(F)C(=O)N2C`
stdout: 168 to 174 °C

stdin: Requested field: melting point. Item: `COc1cc(C(=O)N[C@@H]2CCNC2)ccc1Nc1ncc2c(n1)N(C1CCCCC1)CC(F)(F)C(=O)N2C`
stdout: 195 to 198 °C

stdin: Requested field: melting point. Item: `COc1cc(C(=O)NC2CCN(CC(F)(F)F)CC2)ccc1Nc1ncc2c(n1)N(C1CCCCC1)CC(F)(F)C(=O)N2C`
stdout: 213 to 215 °C

stdin: Requested field: melting point. Item: COc1cc(C(=O)NC2CCC(N(C)C)CC2)ccc1Nc1ncc2c(n1)N(C1CCCCC1)CC(F)(F)C(=O)N2C (stereo not shown)
stdout: 208 to 214 °C

stdin: Requested field: melting point. Item: C=CC1(F)CN(C2CCCC2)c2nc(Nc3ccc(C(=O)N[C@@H]4CCCNC4)cc3OC)ncc2N(C)C1=O (stereo partly shown)
stdout: 169 to 172 °C

* * *

Molecular target: human PLK1 (Homo sapiens)
Construct: FLAG (DYKDDDDK) (N); made in house; host or cells: Sf21 insect cells, recombinant baculovirus (pFASTBAC1, Bac-to-Bac)
Experiment: PLK1 in vitro enzymatic activity assay (phosphorylation of alpha casein by recombinant PLK1)
Format: biochemical
Conditions: recombinant FLAG-tagged PLK1, alpha casein substrate, 500 nmol/L ATP, 40 min at room temperature; read-out: pIC50 (PLK1) (converted)
Below: a set of entries, each annotated with reported IC50.

Record excerpt, results attached:
[[record]]
compound = "COc1cc(C(=O)N[C@H]2CCCN(C)C2)ccc1Nc1ncc2c(n1)N(C1CCCCC1)CC(F)(F)C(=O)N2C"
reported_value = "≤ 2 nM"

[[record]]
compound = "COc1cc(C(=O)NC2CCN(C)CC2)ccc1Nc1ncc2c(n1)N(C1CCCC1)CC(F)(F)CN2C"
reported_value = "> 2 nM"

[[record]]
compound = "COc1cc(C(=O)NC2CN(C)C2)ccc1Nc1ncc2c(n1)N(C1CCCCC1)CC(F)(F)C(=O)N2C"
reported_value = "≤ 2 nM"

[[record]]
compound = "COc1cc(C(=O)NC[C@@H](C)O)ccc1Nc1ncc2c(n1)N(C1CCCCC1)CC(F)(F)C(=O)N2C"
reported_value = "≤ 2 nM"

[[record]]
compound = "COc1cc(C(=O)NC2CCN(C)CC2)ccc1Nc1ncc2c(n1)N(C1CCCC1)CC(C)(F)C(=O)N2C (centres unmarked)"
reported_value = "≤ 2 nM"


stdin: Requested field: IC50. Item: `CN1CCC(NC(=O)c2ccc(Nc3ncc4c(n3)N(C3CCCC3)CC(F)(F)C(=O)N4C)c(Cl)c2)CC1`
stdout: > 2 nM

stdin: Requested field: IC50. Item: `C=C[C@@]1(F)CN(C2CCCC2)c2nc(Nc3ccc(C(=O)NC4CCN(CC)CC4)cc3OC)ncc2N(C)C1=O`
stdout: ≤ 2 nM

stdin: Requested field: IC50. Item: `COc1cc(C(=O)NN2CCOCC2)ccc1Nc1ncc2c(n1)N(C1CCCCC1)CC(F)(F)C(=O)N2C`
stdout: ≤ 2 nM

stdin: Requested field: IC50. Item: `COc1cc(C(=O)NN2CCN(C(C)C)CC2)ccc1Nc1ncc2c(n1)N(C1CCCCC1)CC(F)(F)C(=O)N2C`
stdout: ≤ 2 nM

stdin: Requested field: IC50. Item: C=CC1(F)CN(C2CCCC2)c2nc(Nc3ccc(C(=O)N[C@@H]4CCCNC4)cc3OC)ncc2N(C)C1=O (some centres unmarked)
stdout: ≤ 2 nM

stdin: Requested field: IC50. Item: `COc1cc(C(=O)N[C@H]2CN3CCC2CC3)ccc1Nc1ncc2c(n1)N(C1CCCCC1)CC(F)(F)C(=O)N2C`
stdout: ≤ 2 nM

stdin: Requested field: IC50. Item: `COc1cc(C(=O)NC2CCN(CC(F)(F)F)CC2)ccc1Nc1ncc2c(n1)N(C1CCCCC1)CC(F)(F)C(=O)N2C`
stdout: ≤ 2 nM

stdin: Requested field: IC50. Item: `COc1cc(C(=O)N[C@@H]2CN3CCC2CC3)ccc1Nc1ncc2c(n1)N(C1CCCCC1)CC(F)(F)C(=O)N2C`
stdout: > 2 nM

stdin: Requested field: IC50. Item: `CCN1CC(NC(=O)c2ccc(Nc3ncc4c(n3)N(C3CCCC3)CC(F)(F)C(=O)N4C)c(OC)c2)C1`
stdout: ≤ 2 nM
